# Test system: BT-549 breast
# test-summary: NCI tumour cell line growth inhibition, 48 h
metric: log10 TGI (log10 of the value in µM)

[
  {
    "compound": "Clc1ccc(Cn2c(CN3CCCC3)nc3ccccc32)cc1",
    "log10 TGI": 1.59
  },
  {
    "compound": "COc1ccc(C2C=C(c3ccc(OC)c(OC)c3)N=C3SC=CN32)c(Br)c1 (stereo not given)",
    "log10 TGI": 0.76
  },
  {
    "compound": "Cc1ccc(C2=Nc3c(N)nc(N)nc3NC(c3cccc(Nc4ccnc5cc(C(F)(F)F)ccc45)c3)C2)cc1 (stereo not given)",
    "log10 TGI": 0.53
  },
  {
    "compound": "COc1cc2c(cc1OCCCN1CCN(C)CC1)N=C[C@@H]1CCCN1C2=O",
    "log10 TGI": 0.82
  },
  {
    "compound": "O=C1C=CC2(O)OC/C(=C\\c3ccccc3)C(O)=C2C1=O (stereo not given)",
    "log10 TGI": 0.84
  },
  {
    "compound": "CNCCCNc1nc2ccccc2c2c(=O)c3cc(F)ccc3sc12",
    "log10 TGI": 0.52
  }
]

---

# System: MALME-3M melanoma
# test-summary: NCI tumour cell line growth inhibition, 48 h
metric: log10(TGI) (log10 of the value in µM)

[
  {
    "molecule": "COc1cc2c3c(n(CCCNC4=NCCS4)c(=O)c2cc1OC)-c1cc2c(cc1C3=O)OCO2",
    "log10(TGI)": 0.73
  },
  {
    "molecule": "COc1ccc(-c2ccc(-c3ccc(C(=N)N)c(F)c3)s2)cc1",
    "log10(TGI)": 0.67
  },
  {
    "molecule": "C#CC[C@@H]1C[C@]2(C)[C@H]3CC[C@@H]4[C@H]5C(C(=C)C)CC[C@]5(C(=O)NCCCCN)CC[C@@]4(C)[C@]3(C)CC[C@H]2C(C)(C)[C@H]1OC(C)=O (stereo partly specified)",
    "log10(TGI)": 0.52
  },
  {
    "molecule": "O=c1c(=O)c2cscc2c1=O",
    "log10(TGI)": 0.92
  },
  {
    "molecule": "c1ccc2nc(N/N=C3\\CCCCC3C3CCCCC3)ccc2c1 (stereo unspecified)",
    "log10(TGI)": 1.11
  },
  {
    "molecule": "CC(=O)Nc1ccc(-c2nnc(SCC(=O)Nc3ccc(Cl)cc3Cl)o2)cc1",
    "log10(TGI)": 1.78
  },
  {
    "molecule": "CCOC(=O)/C(C#N)=C\\C=C(\\Sc1nc2ccccc2s1)c1ccc(Cl)cc1",
    "log10(TGI)": 1.58
  }
]

---

# Tested on: OVCAR-5 ovarian
# test-summary: NCI tumour cell line growth inhibition, 48 h; in the data active = GI50 below about 0.43 µM; inactive = the rest
Where a SMILES comes first, the peptide text is derived from it. [ ]: non-standard residue; d: D form. The star is where a group is joined. ξ: configuration not given here. NMeF = CN[C@@H](Cc1ccccc1)C(=O)O; NMeV = CN[C@H](C(=O)O)C(C)C; ξNMeN = CNC(CC(N)=O)C(=O)O; NMeA = CN[C@@H](C)C(=O)O; ξNMeV = CNC(C(=O)O)C(C)C; Boc = CC(C)(C)OC(=O)*
Outcome codes: active, inactive

[
  {
    "compound": "COc1ccc(C(=O)c2sc3nc4c(cc3c2N)CCCC4)cc1OC",
    "class": "inactive"
  },
  {
    "compound": "N/C(=N\\N=C/c1c2ccccc2c(Cl)c2ccccc12)NO",
    "class": "inactive"
  },
  {
    "compound": "Cc1ccc(CN(C)c2ccc(CO)c(Cl)c2)cc1",
    "class": "inactive"
  },
  {
    "compound": "c1ccc(CC(Cc2ccccc2)C2=NCCCN2)cc1",
    "class": "inactive"
  },
  {
    "compound": "COC(=O)[C@H](C)N(C)C(=O)C(CC(N)=O)N(C)C(=O)[C@H](Cc1ccccc1)N(C)C(=O)[C@@H]1CCCN1C(=O)[C@H](C(C)C)N(C)C(=O)C(C(C)C)N(C)C(=O)[C@@H](NC(=O)OC(C)(C)C)C(C)C (some centres not stated) (Boc-V[ξNMeV][NMeV]P[NMeF][ξNMeN][NMeA]-OMe)",
    "class": "inactive"
  },
  {
    "compound": "COc1cccc2c1O/C(=C\\c1ncc([N+](=O)[O-])n1C)C2=O",
    "class": "inactive"
  },
  {
    "compound": "CC(C)N(CCCNC(=O)Nc1ccc(C(C)(C)C)cc1)C[C@H]1O[C@@H](n2ccc3c(N)ncnc32)[C@H](O)[C@@H]1O",
    "class": "inactive"
  },
  {
    "compound": "Clc1ccc(Cn2c(CN3CCCC3)nc3ccccc32)cc1",
    "class": "inactive"
  },
  {
    "compound": "C=C1C(O)C2C(=C(CCC3CC3)C13CC3)C(=O)C(C)(C)C2O (configuration not stated)",
    "class": "inactive"
  },
  {
    "compound": "COc1ccc(-c2ccc(-c3ccc(C(=N)N)c(F)c3)s2)cc1",
    "class": "active"
  },
  {
    "compound": "COc1cc(C2CC(c3cccc(Nc4ccncc4)c3)=NN2c2ccccc2)cc(OC)c1OC (configuration not stated)",
    "class": "inactive"
  },
  {
    "compound": "COc1cc(OC)c(/C=C/c2cc[n+](C)c3ccccc23)c(OC)c1",
    "class": "inactive"
  },
  {
    "compound": "Cc1ccc(C2=Nc3c(N)nc(N)nc3NC(c3cccc(Nc4ccnc5cc(C(F)(F)F)ccc45)c3)C2)cc1 (configuration not stated)",
    "class": "inactive"
  },
  {
    "compound": "CCCN1C/C(=C\\c2ccc(O)c(OC)c2)C(=O)/C(=C/c2ccc(O)c(OC)c2)C1",
    "class": "inactive"
  },
  {
    "compound": "CCc1ccc(C(=O)/C=C/C23c4ccccc4C(c4ccccc42)C2C(=O)NC(=O)C23)cc1 (configuration not stated)",
    "class": "inactive"
  },
  {
    "compound": "O=C(CN(/C=C/C(=O)C(F)(F)F)c1ccc(Cl)cc1)c1ccc(F)cc1",
    "class": "inactive"
  },
  {
    "compound": "Cn1cc(-c2csc(-c3c[nH]c4ccccc34)n2)c2cnccc21",
    "class": "inactive"
  }
]

// provenance: PubChem BioAssay (NCI)
